src = patent US20250205158A1

// EE % lookup, one value per entry
Test: LNP characterization (diameter, PDI, % EE)
Format: physicochemical
Conditions: LNP formulated with the named lipid; Ribogreen assay

compound | units | EE %
CCCCCC/C=C\CCCC(=O)OCC(O)CN1CCN(CC(O)COC(=O)CCC/C=C\CCCCCC)CCN(CC(O)COC(=O)CCC/C=C\CCCCCC)CCN(CC(O)COC(=O)CCC/C=C\CCCCCC)CCN(CC(O)COC(=O)CCC/C=C\CCCCCC)CCN(CC(O)COC(=O)CCC/C=C\CCCCCC)CC1 (centres unmarked) | % | 86.0935
CCCCC/C=C\CCCCC(=O)OCC(O)CN1CCN(CC(O)COC(=O)CCCC/C=C\CCCCC)CCN(CC(O)COC(=O)CCCC/C=C\CCCCC)CCN(CC(O)COC(=O)CCCC/C=C\CCCCC)CCN(CC(O)COC(=O)CCCC/C=C\CCCCC)CCN(CC(O)COC(=O)CCCC/C=C\CCCCC)CC1 (centres unmarked) | % | 85.33
